# targetOrSystem: ABHD6 (Mus musculus)
# Construct: Brain; from tissue; host or cells: mouse brain proteome
# Sequence (Q8R2Y0 1-336): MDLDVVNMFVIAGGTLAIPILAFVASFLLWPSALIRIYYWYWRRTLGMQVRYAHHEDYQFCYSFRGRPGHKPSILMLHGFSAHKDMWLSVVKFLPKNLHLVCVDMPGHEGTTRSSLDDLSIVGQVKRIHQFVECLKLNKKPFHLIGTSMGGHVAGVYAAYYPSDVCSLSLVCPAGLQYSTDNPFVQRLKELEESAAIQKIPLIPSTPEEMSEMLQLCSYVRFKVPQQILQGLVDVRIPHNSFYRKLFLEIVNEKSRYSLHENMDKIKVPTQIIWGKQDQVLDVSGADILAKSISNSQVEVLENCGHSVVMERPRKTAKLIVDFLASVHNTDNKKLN
# testMethodNotes: In vitro competitive activity-based protein profiling, mouse brain proteome (ABHD6)
# Type: biochemical
# setupConditions: mouse brain proteome; concentration not given (μM)
propertyName: % Inh ABHD6 Brain (Mouse, μM)

// solved cases for % Inh ABHD6 Brain (Mouse, μM) follow
CS(=O)(=O)N1CC2(CCN(c3cc(Cl)cc(CN4CCCC45CN(C(=O)OC(C(F)(F)F)C(F)(F)F)C5)c3)CC2)C1 [Example 240] :: ### (### is ≥75%)
COc1ccccc1CN1CC2(CCN(C(=O)OC(C(F)(F)F)C(F)(F)F)CC2)C1 [Example 92] :: ### (### is ≥75%)
CC(C)(C#Cc1cc(C(F)(F)F)ccc1CN1CCCC12CCN(C(=O)OC(C(F)(F)F)C(F)(F)F)CC2)C(=O)O [Example 5] :: # (# is ≤25%)
O=C(O)[C@@H]1CCCN(c2cc(CN3CC4(CCN(C(=O)OC(C(F)(F)F)C(F)(F)F)CC4)C3)cc(C(F)(F)F)c2)C1 [Example 105] :: ### (### is ≥75%)
CC(C)(C#Cc1c(Cl)cccc1CN1CCCC12CCN(C(=O)OC(C(F)(F)F)C(F)(F)F)CC2)C(=O)O [Example 1] :: # (# is ≤25%)
CS(=O)(=O)N1CC2(CCN(c3ccccc3CN3CCN(C(=O)OC(C(F)(F)F)C(F)(F)F)CC3)C2)C1 [Example 167] :: # (# is ≤25%)
O=C(OC(C(F)(F)F)C(F)(F)F)N1CCC2(CC1)CN(Cc1ccc(Cl)cc1N1CCOCC1)C2 [Example 39] :: ### (### is ≥75%)
O=C(O)C1CCN(c2cc(C(F)(F)F)ccc2CN2CC3(CCN(C(=O)OC(C(F)(F)F)C(F)(F)F)CC3)C2)CC1 [Example 102] :: ### (### is ≥75%)

The measured % Inh ABHD6 Brain (Mouse, μM) that O=C(O)C1CCN(Cc2cc(CN3CCC4(CC3)CCN(C(=O)OC(C(F)(F)F)C(F)(F)F)C4)ccc2Cl)CC1 [Example 224] showed for ABHD6 (Mus musculus) is # (# is ≤25%)

The measured % Inh ABHD6 Brain (Mouse, μM) that O=C(OC(C(F)(F)F)C(F)(F)F)N1CCC2(CC1)CN(Cc1c(Cl)cccc1N1CCCC1)C2 [Example 42] showed for ABHD6 (Mus musculus) is ### (### is ≥75%)

The measured % Inh ABHD6 Brain (Mouse, μM) that O=C(O)CN1CCN(c2cc(CN3CCCC34CCN(C(=O)OC(C(F)(F)F)C(F)(F)F)CC4)cc(C(F)(F)F)c2)CC1 [Example 2] showed for ABHD6 (Mus musculus) is # (# is ≤25%)

The measured % Inh ABHD6 Brain (Mouse, μM) that O=C(O)C1CCN(c2cc(C(F)(F)F)ccc2CN2CCC3(CC2)CCN(C(=O)OC(C(F)(F)F)C(F)(F)F)C3)CC1 [Example 195] showed for ABHD6 (Mus musculus) is # (# is ≤25%)

###

# targetOrSystem: ABHD6 (Mus musculus)
# Construct: Brain; from tissue; host or cells: mouse brain proteome
# testMethodNotes: In vitro competitive activity-based protein profiling, mouse brain proteome (ABHD6)
# Type: biochemical
# setupConditions: mouse brain proteome; concentration not given (μM)
propertyName: % Inh ABHD6 Brain (Mouse, μM)

CC1(C(=O)O)CN(c2cc(C(F)(F)F)ccc2CN2CC3(CCN(C(=O)OC(C(F)(F)F)C(F)(F)F)CC3)C2)CCO1 (centres unmarked) :: # (# is ≤25%)
O=C(O)C1CCN(c2ccc(CN3CCC4(CC3)CCN(C(=O)OC(C(F)(F)F)C(F)(F)F)C4)cc2C(F)(F)F)CC1 :: ### (### is ≥75%)
O=C(OC(C(F)(F)F)C(F)(F)F)N1CCC2(CC1)CN(Cc1c(Cl)cccc1N1CCC(F)CC1)C2 :: ### (### is ≥75%)
CCN1CC2(CCN(c3cc(Cl)cc(CN4CCCC45CN(C(=O)OC(C(F)(F)F)C(F)(F)F)C5)c3)CC2)C1 :: # (# is ≤25%)
CC(=O)N1CCC2(CC1)CCN(c1cc(Cl)cc(CN3CCCC34CN(C(=O)OC(C(F)(F)F)C(F)(F)F)C4)c1)C2 :: ### (### is ≥75%)
O=C(OC(C(F)(F)F)C(F)(F)F)N1CC2(CCN(Cc3ccc(C(F)(F)F)cc3N3CCCC3)CC2)C1 :: ### (### is ≥75%)
O=C(OC(C(F)(F)F)C(F)(F)F)N1CCC2(CCN(Cc3ccc(C(F)(F)F)cc3N3CCCCC3)CC2)C1 :: # (# is ≤25%)
O=C(OC(C(F)(F)F)C(F)(F)F)N1CCC2(CC1)CN(Cc1ccc(Cl)cc1N1CCCC1)C2 :: ### (### is ≥75%)

Record "CC(C)(C#Cc1ccccc1CN1CCCC12CCN(C(=O)OC(C(F)(F)F)C(F)(F)F)CC2)C(=O)O" , field % Inh ABHD6 Brain (Mouse, μM): # (# is ≤25%)

Record "CN1CCCC12CCN(c1cc(C(F)(F)F)ccc1CN1CCN(C(=O)OC(C(F)(F)F)C(F)(F)F)CC1)CC2" , field % Inh ABHD6 Brain (Mouse, μM): # (# is ≤25%)

Record "O=C(O)C1CCN(c2cc(Cl)ccc2CN2CCC3(CC2)CCN(C(=O)OC(C(F)(F)F)C(F)(F)F)C3)CC1" , field % Inh ABHD6 Brain (Mouse, μM): # (# is ≤25%)

###

# targetOrSystem: MAGL (Homo sapiens)
# Construct: Proteomes (human prefrontal cortex or cell membrane fractions); from tissue
# Sequence (Q99685 whole entry): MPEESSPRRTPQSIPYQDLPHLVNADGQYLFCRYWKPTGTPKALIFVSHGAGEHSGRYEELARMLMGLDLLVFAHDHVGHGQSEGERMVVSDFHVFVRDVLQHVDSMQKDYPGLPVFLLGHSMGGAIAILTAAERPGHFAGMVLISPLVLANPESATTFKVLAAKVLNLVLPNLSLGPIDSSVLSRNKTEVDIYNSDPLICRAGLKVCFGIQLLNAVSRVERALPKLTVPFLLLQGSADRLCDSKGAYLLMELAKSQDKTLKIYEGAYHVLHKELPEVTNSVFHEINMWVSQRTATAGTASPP
# testMethodNotes: In vitro competitive activity-based protein profiling (FP-Rh or HT-01 probe, gel-based)
# Format: biochemical
# setupConditions: PC3 cell proteome, concentration not given (μM)
propertyName: % Inh MGLL PC3 (Human, μM)

CN(Cc1cc(C(F)(F)F)cc(C2(C(=O)O)CCCC2)c1)C1(C)CCN(C(=O)OC(C(F)(F)F)C(F)(F)F)CC1 :: ### (### is ≥75%)
CN(Cc1ccc(C(F)(F)F)cc1N1CCC(N2CCC[C@H]2C(=O)O)CC1)C1(C)CCN(C(=O)OC(C(F)(F)F)C(F)(F)F)CC1 [Example 163] :: ### (### is ≥75%)
CN(Cc1ccc(C(F)(F)F)cc1N1CCN(CC(=O)O)CC1)C1(C)CCN(C(=O)OC(C(F)(F)F)C(F)(F)F)CC1 :: ### (### is ≥75%)

###

# targetOrSystem: MGLL (Mus musculus)
# Construct: Brain; from tissue; host or cells: mouse brain proteome
# Sequence (O35678 whole entry): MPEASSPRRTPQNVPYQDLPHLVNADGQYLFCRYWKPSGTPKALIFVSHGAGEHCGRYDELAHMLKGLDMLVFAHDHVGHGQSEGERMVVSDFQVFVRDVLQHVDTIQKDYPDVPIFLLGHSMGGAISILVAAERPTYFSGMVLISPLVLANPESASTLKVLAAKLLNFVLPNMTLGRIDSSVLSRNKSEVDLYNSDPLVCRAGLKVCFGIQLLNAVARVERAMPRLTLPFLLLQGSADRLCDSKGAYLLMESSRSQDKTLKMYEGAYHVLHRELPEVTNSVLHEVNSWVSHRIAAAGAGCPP
# testMethodNotes: In vitro competitive activity-based protein profiling, mouse brain proteome (MGLL)
# Format: biochemical
# setupConditions: concentration not given (μM)
propertyName: % Inh MGLL Brain (Mouse, μM)

// solved cases for % Inh MGLL Brain (Mouse, μM) follow
CS(=O)(=O)N1CCC2(CCN(c3cc(CN4CCCC45CN(C(=O)OC(C(F)(F)F)C(F)(F)F)C5)cc(C(F)(F)F)c3)CC2)C1 [Example 233] :: ### (### is ≥75%)
CC(=O)N1CC2(CCN(c3ccccc3CN3CCC34CCN(C(=O)OC(C(F)(F)F)C(F)(F)F)CC4)C2)C1 [Example 228] :: ### (### is ≥75%)
O=C(O)CN1CC2CC1CN2c1cc(CN2CC3(CCN(C(=O)OC(C(F)(F)F)C(F)(F)F)CC3)C2)cc(C(F)(F)F)c1 (centres unmarked) [Example 129] :: ### (### is ≥75%)
O=C(O)C1CCN(c2cc(S(F)(F)(F)(F)F)ccc2CN2CCC3(CC2)CCN(C(=O)OC(C(F)(F)F)C(F)(F)F)C3)CC1 [Example 222] :: ### (### is ≥75%)
O=C(OC(C(F)(F)F)C(F)(F)F)N1CCC2(CC1)CN(Cc1ccc(C(F)(F)F)cc1N1CCCC1)C2 [Example 151] :: ### (### is ≥75%)
CCN1CCC2(CCN(c3cc(Cl)ccc3CN3CCN(C(=O)OC(C(F)(F)F)C(F)(F)F)CC3)CC2)C1 [Example 170] :: ### (### is ≥75%)
O=C(OC(C(F)(F)F)C(F)(F)F)N1CCC2(CC1)CN(Cc1ccccc1N1CCOCC1)C2 [Example 96] :: ### (### is ≥75%)
O=C(O)C1CCN(c2cc(Cl)ccc2CN2CC3(CCN(C(=O)OC(C(F)(F)F)C(F)(F)F)CC3)C2)CC1 [Example 122] :: ### (### is ≥75%)
O=C(OC(C(F)(F)F)C(F)(F)F)N1CC2(CCN(Cc3ccc(Cl)cc3)CC2)C1 [Example 75] :: ### (### is ≥75%)
O=C(O)C1CCN(c2cc(F)ccc2CN2CC3(CCN(C(=O)OC(C(F)(F)F)C(F)(F)F)CC3)C2)CC1 [Example 123] :: ### (### is ≥75%)

Record O=C(OC(C(F)(F)F)C(F)(F)F)N1CCC2(CC1)CN(Cc1ccc(Cl)c(Cl)c1)C2 [Example 67] , field % Inh MGLL Brain (Mouse, μM): ### (### is ≥75%)

Record O=C(O)C1CCN(c2cc(Cl)ccc2CN2CCC3(CC2)CCN(C(=O)OC(C(F)(F)F)C(F)(F)F)C3)CC1 [Example 194] , field % Inh MGLL Brain (Mouse, μM): ### (### is ≥75%)
